From: ChEMBL document CHEMBL4765284

assay: Cytotoxicity against human HepG2 cells assessed as growth incubation incubated for 48 hrs by cell titer glo assay; type: cell-based
Rule: CC50 at 48 h below 300 nM gives T, anything at or above gives F.

1) N#Cc1cnc(NC(=O)N2CCN(c3cnc(Cl)c(Cl)c3)CC2)s1	T
2) Clc1cnc2[nH]c(CCCOc3cnc(Cl)c(Cl)c3)nc2c1	F
3) Clc1cnc2[nH]c(N3CCN(c4cnc(Cl)c(Cl)c4)CC3)nc2c1	T
4) N#Cc1cnc(NC(=O)N2CCN(c3ccc(Cl)c(Cl)c3)CC2)s1	F
5) Cc1ccc(N2CCN(C(=O)Nc3ncc(Cl)s3)CC2)cc1Cl	T
6) Cc1ccc(N2CCN(C(=O)Nc3ncc(Cl)s3)CC2=O)cc1Cl	F
7) N#Cc1cccc(N2CCN(C(=O)Nc3ncc(Cl)s3)CC2)c1	T
8) Cc1cc(NC2CCN(C(=O)Nc3ncc(Cl)s3)C2)ccc1Cl (stereo not given)	F
9) O=C(Nc1ncc(Cl)s1)N1CCN(c2cnc(Cl)c(Cl)c2)CC1	T
10) Cc1ccc(NC2CN(C(=O)Nc3ncc(Cl)s3)C2)cc1Cl	F

====

Recorded measurements of solubility kinetic, one per entry
assay: Aqueous solubility of compound at pH 2 by nephelometry; type: physicochemical
measuredAttribute: solubility kinetic (µM)

1. Cc1ccc(NC2CN(C(=O)Nc3ncc(Cl)s3)C2)cc1Cl	1.6
2. Cc1ccc(OCCCc2nc3cc(Cl)cnc3[nH]2)cc1Cl	1.6
3. Cc1ccc(N2CCN(C(=O)Nc3ncc(Cl)s3)CC2=O)cc1Cl	1.6
4. Cc1cnc2[nH]c(N3CCN(c4ccc(C)c(Cl)c4)CC3)nc2c1	50
5. Cc1cc(NC2CCN(C(=O)Nc3ncc(Cl)s3)C2)ccc1Cl (stereo not drawn)	6.3
6. Clc1cnc2[nH]c(CCCOc3cnc(Cl)c(Cl)c3)nc2c1	12.5
7. Clc1cnc2[nH]c(N3CCN(c4cnc(Cl)c(Cl)c4)CC3)nc2c1	25

====

Recorded measurements of pEC50, one per entry
test system: Human immunodeficiency virus 1; assay: Antiviral activity against HIV-1 infected in FlpIn-HEK293 cells assessed as activation of long terminal repeat driven gene expression incubated for 72 hrs by luciferase based cellular assay; assay type: functional, organism-based; conditions: Human immunodeficiency virus 1, HEK293, 72 h
pEC50: −log10 of the molar value.
measuredAttribute: pEC50

1) O=C(Nc1ncc(Cl)s1)N1CCN(c2ccc(Cl)cc2)CC1	6.46
2) Cc1cnc(NC(=O)N2CCC(Oc3ccc(Cl)c(C)c3)CC2)s1	< 4.40
3) Cc1cc(N(C)C2CCN(C(=O)Nc3ncc(Cl)s3)CC2)ccc1Cl	< 4.40
4) Cc1cnc(NC(=O)N2CCC(N(C)c3ccc(Cl)c(C)c3)C2)s1 (centres undefined)	< 4.40

====

tested on: Human immunodeficiency virus 1; assay: Antiviral activity against HIV-1 infected in FlpIn-HEK293 cells assessed as activation of long terminal repeat driven gene expression incubated for 72 hrs by luciferase based cellular assay; format: functional, organism-based; conditions: Human immunodeficiency virus 1, HEK293, 72 h
pEC50: −log10 of the molar value.
I would appreciate it if you labelled entries Yes when pEC50 is 6 or higher, otherwise No.

1. Cc1cnc(NC(=O)N2CCC(Oc3ccc(Cl)c(C)c3)C2)s1 (stereo unspecified)	No
2. Cc1ccc(OC2CN(C(=O)Nc3ncc(Cl)s3)C2)cc1Cl	Yes
3. N#Cc1cccc(N2CCN(C(=O)Nc3ncc(Cl)s3)CC2)c1	Yes
4. Cc1cnc(NC(=O)N2CCC[C@@H](Nc3ccc(Cl)c(C)c3)C2)s1	No
5. Cc1cnc(NC(=O)N2CCC[C@H](Nc3ccc(Cl)c(C)c3)C2)s1	No
6. Cc1ccc(N2CCN(C(=O)Nc3ncc(Cl)s3)CC2)cc1Cl	Yes
7. Cc1cnc(NC(=O)N2CCN(c3ccc(Cl)c(C)c3)CC2)s1	Yes
8. Clc1cnc2[nH]c(CCCOc3ccc(Cl)c(Cl)c3)nc2c1	No
9. O=C(Nc1ncc(Cl)s1)N1CCN(c2cncnc2)CC1	No
10. Cc1cc(N[C@@H]2CCCN(C(=O)Nc3ncc(Cl)s3)C2)ccc1Cl	No
11. Cc1cnc(NC(=O)N2CCCN(c3ccc(C)c(Cl)c3)CC2)s1	No
12. Cc1cnc2[nH]c(N3CCN(c4ccc(C)c(Cl)c4)CC3)nc2c1	No
13. Cc1cc(OC2CCCN(C(=O)Nc3ncc(Cl)s3)C2)ccc1Cl (stereo unspecified)	No
14. Cc1ccc(N2CCCN(C(=O)Nc3ncc(Cl)s3)CC2)cc1Cl	No
15. N#Cc1cnc(NC(=O)N2CCN(c3cnc(Cl)c(Cl)c3)CC2)s1	Yes
16. Cc1cnc(NC(=O)N2CCC(Nc3ccc(Cl)c(C)c3)C2)s1 (stereo unspecified)	No
17. Cc1cnc(NC(=O)N2CC(Oc3ccc(C)c(Cl)c3)C2)s1	Yes
18. Cc1cnc(NC(=O)N2CCN(c3cnc(Cl)c(Cl)c3)CC2)s1	Yes
19. Cc1ccc(N2CC3(CN(C(=O)Nc4ncc(Cl)s4)C3)C2)cc1Cl	No
20. Cc1cnc2sc(CCCOc3ccc(C)c(Cl)c3)nc2c1	No
21. Cc1cnc(NC(=O)N2CC3(C2)CN(c2ccc(C)c(Cl)c2)C3)s1	No
22. Cc1cnc(NC(=O)N2CCN(c3cncnc3)CC2)s1	No
23. Clc1cnc2[nH]c(N3CCN(c4cnc(Cl)c(Cl)c4)CC3)nc2c1	Yes
24. Clc1cnc2[nH]c(CCCOc3cnc(Cl)c(Cl)c3)nc2c1	No
25. Cc1cnc(NC(=O)N2CCC(Nc3ccc(Cl)c(C)c3)CC2)s1	No
26. Cc1cnc(NC(=O)N2CCN(c3ccc(C)c(Cl)c3)C(C)C2)s1 (stereo unspecified)	No
27. Cc1cc(NC2CCN(C(=O)Nc3ncc(Cl)s3)CC2)ccc1Cl	No
28. Cc1cnc2[nH]c(CCCOc3cnc(Cl)c(Cl)c3)nc2c1	No
29. Cc1ccc(N2CCC(C(=O)Nc3ncc(Cl)s3)CC2)cc1Cl	No
30. Cc1cc(N[C@H]2CCCN(C(=O)Nc3ncc(Cl)s3)C2)ccc1Cl	No
31. Cc1ccc(N2CCN(C(=O)Nc3ncc(Cl)s3)CC2=O)cc1Cl	Yes
